tgt: T1, human factor IX (human, UniProt P00740 47-461, 12 glutamic acid residues of the GLA domain are post-translationally γ-carboxylated)
T1 construct: Zymogen used as analyte in SPR, reconstituted at 1 mg/ml; also called FIX; Human FIX (MW ~55 KDa)
runDescription: SPR as in Example 10, human FIX as analyte
resultType: Kd (nM)

{"columns": ["binder", "unitSpec", "resultNumber"],
 "data": [
  ["NINA-0128 (antibody, V domains shown) VH: EVQLVESGGGFVQPGGSLRLSCAVSGFTFNSYWMSWVRQAPGKGLEWVANINQDGSEKFYVASVKGRFTMSRDNAKKSVYVQMNSLRAEDTAVYYCAREGYSSSSYYGMDVWGQGTTVTVSS VL: SYVLTQPPSVSVAPGETARITCGGDNIGRKSVYWYQQKSGQAPVLVIYYDSDRPSGIPERFSGSNSGNTATLTISRVEAGDEADYYCQVWDGSSDHWVFGGGTKLTVL", "nM", 359],
  ["NINA-0436.0128 (antibody, V domains shown) VH: EVQLVESGGGFVQPGGSLRLSCAVSGFTFNSYWMSWVRQAPGKGLEWVANINQDGSEKFYVASVKGRFTMSRDNAKKSVYVQMNSLRAEDTAVYYCAREGYSSISYYGMDVWGQGTTVTVSS VL: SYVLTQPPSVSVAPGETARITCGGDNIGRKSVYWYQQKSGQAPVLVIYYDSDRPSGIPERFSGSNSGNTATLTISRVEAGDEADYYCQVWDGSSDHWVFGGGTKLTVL", "nM", 359],
  ["NINA-1280.0128 (antibody, V domains shown) VH: EVQLVESGGGFVQPGGSLRLSCAVSGFRFNSYWMSWVRQAPGKGLEWVANINQDGSRKFYVASVKGRFTMSRDNAKKSVYVQMNSLRAEDTAVYYCAREGYSSIKYYGMDVWGQGTTVTVSS VL: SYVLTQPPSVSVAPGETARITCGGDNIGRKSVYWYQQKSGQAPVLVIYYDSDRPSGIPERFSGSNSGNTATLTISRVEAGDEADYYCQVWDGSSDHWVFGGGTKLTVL", "nM", 52.3],
  ["NINA-1172.0128 (antibody, V domains shown) VH: EVQLVESGGGFVQPGGSLRLSCAVSGFTFNSYWMSWVRQAPGKGLEWVANINQDGSRKFYVASVKGRFTMSRDNAKKSVYVQMNSLRAEDTAVYYCAREGYSSIKYYGMDVWGQGTTVTVSS VL: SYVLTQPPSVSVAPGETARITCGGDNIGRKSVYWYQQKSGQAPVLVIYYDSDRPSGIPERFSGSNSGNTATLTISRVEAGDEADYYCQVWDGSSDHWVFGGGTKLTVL", "nM", 76.4]
]}
